# Read-out: Human Leukocyte Antigen - DR isotype (HLADR), HLA-DRA (gene 3122)
# assay-info: BSK_BE3C_HLADR: BioMAP Diversity Plus: BE3C Assay for Human Leukocyte Antigen - DR isotype (HLADR) Biomarker Activity (AID 2283032)
# condition-parameters: primary human bronchial epithelial cells; actives raise or lower the signal
The source made the active and inactive calls. The calls were made as follows: active = hit-call score of the fitted dose curve at least 0.9, where 1 is the maximum; inactive = score below 0.9.
Possible outcomes: active, inactive

[[record]]
compound = "COC(=O)c1c(Cl)c(Cl)c(C(=O)OC)c(Cl)c1Cl"
category = "inactive"

[[record]]
compound = "Clc1nc(Cl)c(Cl)c(Cl)c1Cl"
category = "active"

[[record]]
compound = "CCC(C)(C)C(=O)O[C@H]1C[C@@H](C)C=C2C=C[C@H](C)[C@H](CC[C@@H]3C[C@@H](O)CC(=O)O3)[C@H]21"
category = "active"

[[record]]
compound = "CC(=O)c1ccc2c(c1)[C@H](NC(=O)c1ccc(F)cc1)[C@@H](O)C(C)(C)O2"
category = "inactive"

[[record]]
compound = "CCOc1cccc(-n2cc(C(=O)N3CCN(c4cc(C(=O)O)c5ccccc5c4)CC3)nc2-c2ccc(C)cc2)c1"
category = "active"

[[record]]
compound = "CC(=O)OCCC(C)C"
category = "inactive"

[[record]]
compound = "CCOC(=O)c1ccc(C2CCC(NC[C@H](O)COc3ccc(O)c(NS(C)(=O)=O)c3)CC2)cc1 (stereo partly specified)"
category = "inactive"

[[record]]
compound = "CC(C)CCCCCCCOC(=O)CCCCC(=O)OCCCCCCCC(C)C"
category = "inactive"

[[record]]
compound = "CC/C(=C\\C(=N/O)C(N)=O)C(C)[N+](=O)[O-] (stereo unspecified)"
category = "inactive"

[[record]]
compound = "Nc1cccc(N)c1"
category = "inactive"

[[record]]
compound = "On1ccccc1=S"
category = "active"


====

# Read-out: Intercellular Adhesion Molecule 1 (ICAM1), ICAM1 (gene 3383)
# assay-info: BSK_KF3CT_ICAM1: BioMAP Diversity Plus: KF3CT Assay for Intercellular Adhesion Molecule 1 (ICAM1) Biomarker Activity (AID 2283067)
# condition-parameters: primary human keratinocytes with fibroblasts; actives raise or lower the signal
Activity calls are given as the source filed them. How the source made its calls: active means hit-call score of the fitted dose curve at least 0.9, where 1 is the maximum; inactive means score below 0.9.
Possible outcomes: label 1 = active, label 0 = inactive

[[record]]
compound = "O=C(OC[C@H]1O[C@@H](OC(=O)c2cc(O)c(O)c(OC(=O)c3cc(O)c(O)c(O)c3)c2)[C@H](OC(=O)c2cc(O)c(O)c(OC(=O)c3cc(O)c(O)c(O)c3)c2)[C@@H](OC(=O)c2cc(O)c(O)c(OC(=O)c3cc(O)c(O)c(O)c3)c2)[C@@H]1OC(=O)c1cc(O)c(O)c(OC(=O)c2cc(O)c(O)c(O)c2)c1)c1cc(O)c(O)c(OC(=O)c2cc(O)c(O)c(O)c2)c1"
category = "label 1"

[[record]]
compound = "CCOC(=O)COc1ccc2c(c1)CC(NCC(O)c1cccc(Cl)c1)CC2 (stereo unspecified)"
category = "label 0"

[[record]]
compound = "CC(C)=CCC/C(C)=C\\CO"
category = "label 0"

[[record]]
compound = "CCOCCOCCOCCO"
category = "label 0"

[[record]]
compound = "CC(C)c1cccc(C(C)C)c1N1C(=O)c2ccc(O)cc2C1=O"
category = "label 0"

[[record]]
compound = "CCCCCCCCCCCCc1ccccc1"
category = "label 0"

[[record]]
compound = "CCOC(=O)c1ccc(C2CCC(NC[C@H](O)COc3ccc(O)c(NS(C)(=O)=O)c3)CC2)cc1 (stereo partly specified)"
category = "label 0"

[[record]]
compound = "CCCC(=O)OCC"
category = "label 0"

[[record]]
compound = "CCCN(C1CCN(C(=O)C2CCNCC2)CC1)[C@@H]1CCc2ccc(OC)cc2C1"
category = "label 0"

[[record]]
compound = "O=C(O)c1cc(N=Nc2ccc(S(=O)(=O)Nc3ccccn3)cc2)ccc1O"
category = "label 0"

[[record]]
compound = "CCn1nc(Cc2ccccc2)cc1C1CCN(C[C@H]2C[C@H](N(C)[C@@H](C(=O)O)C(C)C)C[C@@H]2c2cccc(F)c2)CC1"
category = "label 0"

[[record]]
compound = "COC(=O)c1ccccc1O"
category = "label 0"

[[record]]
compound = "CCCCCCc1ccc(O)cc1O"
category = "label 1"

[[record]]
compound = "O=C(O)c1cccc(N(Cc2cccnc2)c2ccc(OC(F)F)c(OC(F)F)c2)c1"
category = "label 0"

[[record]]
compound = "C=CC(=C)CCC=C(C)C"
category = "label 0"

[[record]]
compound = "Fc1ccccc1[C@@H](F)COC1CCC(Nc2ncnc3[nH]ncc23)CC1 (stereo partly specified)"
category = "label 0"

[[record]]
compound = "CCCCC(CC)COC(=O)CCCCCCCCC(=O)OCC(CC)CCCC (stereo unspecified)"
category = "label 0"

[[record]]
compound = "CCC(C)(C)C(=O)O[C@H]1C[C@@H](C)C=C2C=C[C@H](C)[C@H](CC[C@@H]3C[C@@H](O)CC(=O)O3)[C@H]21"
category = "label 1"

[[record]]
compound = "COC(=O)c1c(Cl)c(Cl)c(C(=O)OC)c(Cl)c1Cl"
category = "label 0"

[[record]]
compound = "CC(=O)OCCC(C)C"
category = "label 0"

[[record]]
compound = "CCCCC(CC)COC(=O)c1ccc(C(=O)OCC(CC)CCCC)cc1 (stereo unspecified)"
category = "label 0"


====

# Read-out: Apoptosis regulator Bcl-2 (Homo sapiens) (UniProt P10415)
# Sequence (P10415 whole entry, looked up): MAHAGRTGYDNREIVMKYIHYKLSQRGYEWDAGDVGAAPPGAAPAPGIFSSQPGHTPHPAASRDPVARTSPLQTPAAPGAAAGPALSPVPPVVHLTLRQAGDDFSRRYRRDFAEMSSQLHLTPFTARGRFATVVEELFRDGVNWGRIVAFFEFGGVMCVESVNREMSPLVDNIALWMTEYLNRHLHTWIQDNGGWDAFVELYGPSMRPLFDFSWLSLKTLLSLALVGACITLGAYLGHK
# assay-info: LTEA_HepaRG_BCL2: Life Technologies and Expression Analysis (LTEA) Assay for Bcl-2 gene using HepaRG (AID 2283475);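 also: BCL2 transcript by TaqMan qRT-PCR normalised to ACTB GAPDH and POLR2A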
# condition-parameters: mRNA level, 48 h; actives raise or lower the signal
Calls of active or inactive are those of the source. How the source made its calls: active means hit-call score of the fitted dose curve at least 0.9, where 1 is the maximum; inactive means score below 0.9.
Possible outcomes: true (1) = active, false (0) = inactive

[[record]]
compound = "O=C(O)c1cc(N=Nc2ccc(S(=O)(=O)Nc3ccccn3)cc2)ccc1O"
category = "false (0)"

[[record]]
compound = "Cc1ccc(S(=O)(=O)O)cc1C"
category = "false (0)"

[[record]]
compound = "CC(=O)OCCC(C)C"
category = "false (0)"

[[record]]
compound = "O=C(CCCCCCCCc1cccnc1)N1CCC(C=C(c2ccccc2)c2ccccc2)CC1"
category = "true (1)"

[[record]]
compound = "O=C1CCCCCN1"
category = "false (0)"

[[record]]
compound = "CC1=CC(=O)CC(C)(C)C1"
category = "false (0)"

[[record]]
compound = "CCOCCOCCOCCO"
category = "false (0)"

[[record]]
compound = "CC(C)c1cccc(C(C)C)c1N1C(=O)c2ccc(O)cc2C1=O"
category = "true (1)"

[[record]]
compound = "CC(C)CCO"
category = "false (0)"

[[record]]
compound = "CC[C@H](C)C(=O)O[C@H]1C[C@@H](C)C=C2C=C[C@H](C)[C@H](CC[C@@H]3C[C@@H](O)CC(=O)O3)[C@H]21"
category = "false (0)"

[[record]]
compound = "CNCc1ccc(NC(=O)c2c[nH]c3c2C(=O)CCC3)cc1"
category = "false (0)"

[[record]]
compound = "NC(=O)NO"
category = "false (0)"

[[record]]
compound = "CC(C)=CCCC(C)CCO (stereo not drawn)"
category = "false (0)"


====

# Read-out: Monocyte Chemoattractant Protein-1 (MCP1), CCL2 (gene 6347)
# assay-info: BSK_4H_MCP1: BioMAP Diversity Plus: 4H Assay for Monocyte Chemoattractant Protein-1 (MCP1) Biomarker Activity (AID 2283018)
# condition-parameters: primary human endothelial cells (HUVEC); actives raise or lower the signal
Calls of active or inactive are those of the source. The calls were made as follows: active = hit-call score of the fitted dose curve at least 0.9, where 1 is the maximum; inactive = score below 0.9.
Possible outcomes: YES = active, NO = inactive

[[record]]
compound = "CC(C)(O)c1coc(S(=O)(=O)NC(=O)Nc2c3c(cc4c2CCC4)CCC3)c1"
category = "NO"

[[record]]
compound = "C1=CCCC=CCCC=CCC1"
category = "NO"

[[record]]
compound = "CC1(C)C(=O)N(Br)C(=O)N1Br"
category = "NO"

[[record]]
compound = "CCCC(=O)OCC"
category = "NO"

[[record]]
compound = "Cn1cnc([N+](=O)[O-])c1Sc1ncnc2nc[nH]c12"
category = "NO"

[[record]]
compound = "CC(C)=CCC/C(C)=C\\CO"
category = "NO"

[[record]]
compound = "CCc1cc(SCc2sc(-c3ccc(C(F)(F)F)cc3)nc2CN2CCN(c3ccc(OC)cc3)CC2)ccc1OCC(=O)O"
category = "YES"

[[record]]
compound = "O=c1[nH]c2ccc(S(=O)CCN3CCC(Cc4ccc(F)cc4)CC3)cc2o1 (stereo not drawn)"
category = "YES"

[[record]]
compound = "O=C(O)c1cccc(Oc2ccccc2)c1"
category = "NO"

[[record]]
compound = "CCCCCCCCCCCCCCCO"
category = "YES"

[[record]]
compound = "O=C1CCC(N2C(=O)c3ccccc3C2=O)C(=O)N1 (stereo not drawn)"
category = "NO"

[[record]]
compound = "CC(C)=CCC/C(C)=C/CO"
category = "NO"

[[record]]
compound = "NC(=O)NO"
category = "NO"

